Test system: HCC-2998 colon
assay_info: NCI tumour cell line growth inhibition, 48 h
result_type: TGI (µM)

> print(dat)
                                   compound   target.system  comparison.sign  observed
1  O=C1c2cccc3cc([N+](=O)[O-])cc(c23)C(=O)N1CCCN1CCN(CCCN2C(=O)c3cccc4cc([N+](=O)[O-])cc(c34)C2=O)CC1  HCC-2998 colon                =      54.3
2  COC(=O)c1ccc2c(c1)c1c(C)c3cnccc3c(C)c1n2C  HCC-2998 colon                =      3.85
3  CC1CC[C@]2(C(=O)O)CCC3(C)C(=C2[C@H]1C)C=CC1[C@@]2(C)CC[C@H](O)C(C)(C)C2CC[C@]13C (stereo partly drawn)  HCC-2998 colon                =      73.8
4             Cc1nc2ccccc2n1CCc1nc2ccccc2s1  HCC-2998 colon                >       100
5  Cn1cc(NC(=O)c2cc(NC(=O)CCCCCC(=O)Nc3cc(C(=O)Nc4cc(C(=O)NCCC(=N)N)n(C)c4)n(C)c3)cn2C)cc1C(=O)NCCC(=N)N  HCC-2998 colon                >       100
6  CN(C)CN1C(=O)S/C(=C2\C(=O)N(CN(C)C)c3ccccc32)C1=O  HCC-2998 colon                >       100
7  CC1=C2N3C[C@@H](n4c(=O)n(C)c(=O)n43)C23CCC1n1c(=O)n(C)c(=O)n13  HCC-2998 colon                >       100
8  CCN(CC)CC(C)Nc1ccc(C)c2sc3ccccc3c(=O)c12 (stereo not drawn)  HCC-2998 colon                =        15

----------
System: HCT-116 colon
assay_info: NCI tumour cell line growth inhibition, 48 h; in the data active means GI50 below about 0.43 µM; inactive means the rest
Outcomes: YES = active, NO = inactive

> print(dat)
                                    molecule  group.label
 1  CCN(CC)CC(C)Nc1ccc(C)c2sc3ccccc3c(=O)c12 (stereo not given)           NO
 2     CCOC(=O)c1sc2c(C(=O)OCC)n3ccccc3c2c1N           NO
 3    Cc1ccc2c(c1)sc(-c1ccc(N(C)C)cc1)[n+]2C           NO
 4  CCC(=O)N1C/C(=C/c2ccc(OC)cc2)C(=O)/C(=C/c2ccc(OC)cc2)C1          YES
 5  Nc1ccc2c(c1)[O][Sn]([c]1ccccc1)([c]1ccccc1)[O]C2=O           NO
 6                    CCN(CC)C(=S)SSC1CCCCC1           NO
 7  CC1=CC[C@@H]2C(C)(C)[C@@H](O)CC[C@@]2(C)[C@@H]1COc1ccc2ccc(=O)oc2c1           NO
 8  O=C(/C=C/c1ccc([N+](=O)[O-])o1)NNC(=O)c1cc2ccccc2cc1O           NO
 9             ClCCn1cnc2c(SCc3ccccc3)ncnc21          YES
10  Cc1ccc(N2C(=O)C(Cl)=C(Nc3cccc(O)c3)C2=O)cc1Cl           NO
11  Cc1ccc(-c2cc3nc(-c4ccccc4)nc(C(Cl)Cl)n3n2)cc1           NO
12  CCCCS(=N)(=O)CC[C@H](N)C(=O)O (stereo not given in full)           NO
13  OC1CCC(Oc2cccc3cnc(Nc4ccc5nc[nH]c5c4)nc23)CC1 (stereo not given)          YES
14  CCc1ccc(C2=C(O)C(=O)C(c3ccc(CC)cc3)=C(O)C2=O)cc1           NO
15  COc1ccc(-c2cn3ccnc3c(-c3ccc4ncn(C5CCCCC5)c4c3)n2)cc1          YES
